Where do these numbers come from? They come from patent US6124449.

assayedTarget: TGF-beta1 (hTGF-beta1) (Homo sapiens, UniProt P01137 P01137:279-390)
Sequence (P01137 279-390, one chain of several): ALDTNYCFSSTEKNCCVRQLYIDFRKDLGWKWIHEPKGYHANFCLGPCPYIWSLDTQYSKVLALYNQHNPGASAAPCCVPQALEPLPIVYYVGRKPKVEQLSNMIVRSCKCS
protocol: filter; biphasic; Kd1 4.4±1.6 nM
conditionSet: tags: R&D Systems; biotinylated form (NFTG0) used for BIAcore; chain copies: 2
measuredQuantity: Kd (pM)
Respond with the bare value in pM.

Ask | Entry 40-58 (ssRNA, 2'-F C and U) RNA: GGGAGGACGAUGCGGUUAUGGGCGUCAACACCGCUAUUACAACUUUCGCCUCCCCAGACGACUCGCCCGA has what Kd?
Reply | 5.3
